- Test system: Peritoneal macrophage
- test.protocol: Cytotoxicity against mouse Peritoneal macrophage cells assessed as survival rate at 100 microg/ml
- Type: functional
- condition.set: read-out: Survival
value.type: viability at 100 µg/mL (%)

                               substance  experimental_value
0                H-RRSRFGRFFKKVRKQLG-NH2                  80
1        H-RRSRFGRFFKKVRKQLGRVLRHSRI-NH2                  80
2    H-RRSRFGRFFKKVRKQLGRVLRHSRITVGG-NH2                  80
3  H-RRSRFGRFFKKVRKQLGRVLRHSRITVGGRM-NH2                  80
4              H-RRSRFGRFFKKVRKQLGRV-NH2                  80
5          H-RRSRFGRFFKKVRKQLGRVLRHS-NH2                  80
6            H-RRSRFGRFFKKVRKQLGRVLR-NH2                  80
7      H-RRSRFGRFFKKVRKQLGRVLRHSRITV-NH2                  80

Ref: ChEMBL document CHEMBL6078680
